Target or system Cholinesterase (Equus caballus); recorded quantity IC50.
// units = nM; emit number, no label

COc1cc(/C=C/C(=O)NCCCCCCNc2c3c(nc4ccccc24)CCCC3)ccc1O ... 26.3

## Task Lab request: please report IC50 under test system Cholinesterase (Equus caballus) for COc1cc(/C=C/C(=O)NCCNc2c3c(nc4ccccc24)CCCC3)ccc1O
## Result 37.5

## Task Lab request: please report IC50 under test system Cholinesterase (Equus caballus) for COc1cc(/C=C/C(=O)NCCCCCCNc2c3c(nc4ccccc24)CCCC3)ccc1OCCCCCCO[N+](=O)[O-]
## Result 2

## Task Lab request: please report IC50 under test system Cholinesterase (Equus caballus) for COc1cc(/C=C/C(=O)NCCCCCCCCNc2c3c(nc4ccccc24)CCCC3)ccc1OCCCCCCO[N+](=O)[O-]
## Result 1.9

## Task Lab request: please report IC50 under test system Cholinesterase (Equus caballus) for COc1cc(/C=C/C(=O)NCCCCNc2c3c(nc4ccccc24)CCCC3)ccc1OCCCCCCO[N+](=O)[O-]
## Result 11.7

###

tested-system: Acetylcholinesterase (Electrophorus electricus)
Sequence (O42275 whole entry): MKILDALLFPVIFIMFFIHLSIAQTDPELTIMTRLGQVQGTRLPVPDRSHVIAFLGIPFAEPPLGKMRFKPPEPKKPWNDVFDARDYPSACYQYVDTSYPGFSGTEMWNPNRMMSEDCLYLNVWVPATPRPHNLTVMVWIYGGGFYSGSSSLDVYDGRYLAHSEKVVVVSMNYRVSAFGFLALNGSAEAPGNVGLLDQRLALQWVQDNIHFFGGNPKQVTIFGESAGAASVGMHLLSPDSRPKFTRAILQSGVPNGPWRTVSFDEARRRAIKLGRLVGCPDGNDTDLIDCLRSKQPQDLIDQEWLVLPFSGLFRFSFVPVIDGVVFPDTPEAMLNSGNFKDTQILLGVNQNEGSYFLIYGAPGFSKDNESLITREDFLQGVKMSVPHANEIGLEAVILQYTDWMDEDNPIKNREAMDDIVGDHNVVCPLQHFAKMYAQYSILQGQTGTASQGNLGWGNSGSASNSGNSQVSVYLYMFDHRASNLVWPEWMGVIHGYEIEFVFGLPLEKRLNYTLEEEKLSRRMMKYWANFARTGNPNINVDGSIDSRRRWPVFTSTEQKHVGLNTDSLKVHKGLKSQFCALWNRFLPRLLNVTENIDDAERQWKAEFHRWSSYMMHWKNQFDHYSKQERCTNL
Field 'label' (enum: true (1) / false (0)). Set to true (1) when IC50 is strictly under 10 nM; else false (0).

# example entries with known answers
COc1cc(/C=C/C(=O)NCCCCCCCCNc2c3c(nc4ccccc24)CCCC3)ccc1OCCCCO[N+](=O)[O-] ... true (1)
COc1cc(/C=C/C(=O)NCCCNc2c3c(nc4ccccc24)CCCC3)ccc1OCCO[N+](=O)[O-] ... false (0)

## Task # TODO verify IC50 < 10 nM strictly for this compound: COc1cc(/C=C/C(=O)NCCCCNc2c3c(nc4ccccc24)CCCC3)ccc1OCCCCO[N+](=O)[O-]
## Result false (0)

## Task # TODO verify IC50 < 10 nM strictly for this compound: COc1cc(/C=C/C(=O)NCCCCCCCCNc2c3c(nc4ccccc24)CCCC3)ccc1OCCCCCCO[N+](=O)[O-]
## Result false (0)

## Task # TODO verify IC50 < 10 nM strictly for this compound: COc1cc(/C=C/C(=O)NCCCCNc2c3c(nc4ccccc24)CCCC3)ccc1O
## Result false (0)

## Task # TODO verify IC50 < 10 nM strictly for this compound: COc1cc(/C=C/C(=O)NCCCCCCCCNc2c3c(nc4ccccc24)CCCC3)ccc1OCCO[N+](=O)[O-]
## Result true (1)

## Task # TODO verify IC50 < 10 nM strictly for this compound: COc1cc(/C=C/C(=O)NCCCCCCNc2c3c(nc4ccccc24)CCCC3)ccc1OCCCCO[N+](=O)[O-]
## Result true (1)

## Task # TODO verify IC50 < 10 nM strictly for this compound: COc1cc(/C=C/C(=O)NCCCCCCNc2c3c(nc4ccccc24)CCCC3)ccc1OCCO[N+](=O)[O-]
## Result true (1)

## Task # TODO verify IC50 < 10 nM strictly for this compound: NCCCNc1c2c(nc3ccccc13)CCCC2
## Result false (0)

###

Target or system Cholinesterase (Equus caballus); recorded quantity pIC50.
Keep in mind that pIC50 stands for -log10 of concentration in molar terms.

// below: answered compounds
COc1cc(/C=C/C(=O)NCCCCCCCCNc2c3c(nc4ccccc24)CCCC3)ccc1OCCCO[N+](=O)[O-] ... 9.00
NCCCCCCNc1c2c(nc3ccccc13)CCCC2 ... 8.18
COc1cc(/C=C/C(=O)NCCNc2c3c(nc4ccccc24)CCCC3)ccc1OCCCCO[N+](=O)[O-] ... 8.12
COc1cc(/C=C/C(=O)NCCCCCCNc2c3c(nc4ccccc24)CCCC3)ccc1OCCCO[N+](=O)[O-] ... 8.25
COc1cc(/C=C/C(=O)NCCCNc2c3c(nc4ccccc24)CCCC3)ccc1O ... 7.51
COc1cc(/C=C/C(=O)NCCCCCCCCNc2c3c(nc4ccccc24)CCCC3)ccc1OCCO[N+](=O)[O-] ... 8.80
CCCOc1ccc(/C=C/C(=O)NCCCNc2c3c(nc4ccccc24)CCCC3)cc1OC ... 7.39
NCCCCNc1c2c(nc3ccccc13)CCCC2 ... 7.64

Consider now this further compound.
## Task # query: pIC50 of entry COc1cc(/C=C/C(=O)NCCCNc2c3c(nc4ccccc24)CCCC3)ccc1OCCCCCCO[N+](=O)[O-]
## Result 7.71
